These data points were gathered from the supplement of paper PMC11451515.

I'd appreciate it if you could supply cell viability values for the items below.
Test system: P12-Ichikawa
Procedure details: cell viability relative to DMSO control; higher = less cytotoxic
Assay conditions: HPLM + 10% dialyzed FBS; 48 h; 0.569 µM
Numbers only, in %.

Could you report cell viability for every entry in the following list?
1. CCN(CCO)CCCC(C)Nc1ccnc2cc(Cl)ccc12 (stereo unspecified)
2. NCC/1=C/NC(=S)N1[C@H]2CCC3=C(F)C=C(F)C=C3C2
3. O=C(/C=C/c1cccnc1)NCCCCC1CCN(C(=O)c2ccccc2)CC1
4. CC[P](CC)(CC)=[Au][S][C@@H]1O[C@H](COC(C)=O)[C@@H](OC(C)=O)[C@H](OC(C)=O)[C@H]1OC(C)=O
5. N[C@@H](Cc1cc(I)c(Oc2cc(I)c(O)c(I)c2)c(I)c1)C(=O)O
6. C[C@]12CCC(=O)C(O)=C1CC[C@@H]1[C@@H]2CC[C@]2(C)C(=O)CC[C@@H]12
7. O=C1C(CCC(O)c2ccc(F)cc2)C(c2ccc(O)cc2)N1c1ccc(F)cc1 (stereo unspecified)

1. 75.6
2. 119
3. 4.8
4. 110
5. 106
6. 128
7. 117

Could you report cell viability for every entry in the following list?
1. CCNC(=O)c1noc(-c2cc(C(C)C)c(O)cc2O)c1-c1ccc(CN2CCOCC2)cc1
2. CC(C)N(CCCNC(=O)Nc1ccc(C(C)(C)C)cc1)C[C@H]1O[C@@H](n2cc(Br)c3c(N)ncnc32)[C@H](O)[C@@H]1O
3. CCCCc1ccc(N[S+](=O)([O-])c2ccc(C)c(C(=O)N3CCN(c4cccc(C)c4C)CC3)c2)cc1
4. NC/1=N/C(=O)C2=C([NH]C=C2CCC3=CC=C(C=C3)C(=O)N[C@@H](CCC(O)=O)C(O)=O)N1
5. C[C@@H](Oc1ccc2[nH]nc(/C=C/c3cnn(CCO)c3)c2c1)c1c(Cl)cncc1Cl
6. CC(=O)OCC(CCn1cnc2cnc(N)nc21)COC(C)=O
7. COCCNCCCn1c(C(=O)CF)c(-c2ccc(C)cc2)c2c(N)ncnc21

1. 53.9
2. 97.9
3. 121
4. 105
5. 83.9
6. 108
7. 102

Could you report cell viability for every entry in the following list?
1. O=C(N[C@H]1CN2CCC1CC2)c1ccc(Cl)cc1
2. COC1=CC=CC(=C1/C2=N/CC3=C(N=C(NC4=CC(=C(C=C4)C(O)=O)OC)N=C3)C5=CC=C(Cl)C=C25)F
3. CN(C)Cc1cccc(N/C(=C2\C(=O)Nc3cc(C(=O)N(C)C)ccc32)c2ccccc2)c1
4. C=C1C(=O)O[C@@H]2[C@H]3O[C@]3(C)CC/C=C(\C)CC[C@@H]12
5. CN1C(=O)C(=C/2N(C(=O)N(C3CC3)C(=O)C2=C1/NC4=CC=C(I)C=C4F)C5=CC=CC(=C5)NC(C)=O)\C
6. NC(=O)[C@@H](CCC(F)(F)F)N(Cc1ccc(-c2ncon2)cc1F)[S+](=O)([O-])c1ccc(Cl)cc1
7. O=C1CCc2cc(OCCCCc3nnnn3C3CCCCC3)ccc2N1

[114, 13.5, 111, 122, 101, 96.1, 94.2]

* * *

Tested on: P12-Ichikawa
Procedure details: cell viability relative to DMSO control; higher = less cytotoxic
Assay conditions: HPLM + 10% dialyzed FBS; 48 h; 5.12 µM
Classify: label 1 when cell viability is strictly less than 80%; label 0 when cell viability is not.

Please determine if NC(=O)c1c(OCc2c(F)cc(Br)cc2F)nsc1NC(=O)NCCCCN1CCCC1 is below 80% in terms of cell viability.
label 0
